Test system: glutathione S-transferase (GST-GSH binding)
Run description: GST–glutathione interaction disruption – biochemical, multiplex beads, flow cytometry, HPSMTB buffer, profiling panel (AID 1324);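 further: glutathione beads loaded with GST-green fluorescent protein and no fluorescent Bim peptide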
Run parameters: multiplex bead flow cytometry, MCF, concentration not given here
Active and inactive are the calls of the source. How the calls were made is not given here.
Measurement kind: percent span inhibition

Some compounds with known percent span inhibition results, for comparison:
Compound: Cc1ccc(NC(=O)c2cc(S(=O)(=O)NCCC3=CCCCC3)ccc2F)cc1F
Recorded value: inactive
--
Compound: CC(C)(C)C(=O)NC(NC(=S)Nc1ccc(S(N)(=O)=O)cc1)C(Cl)(Cl)Cl (centres undefined)
Recorded value: inactive
--
Compound: COc1cc(/C=N/NC(=O)CN(Cc2ccco2)S(=O)(=O)c2ccccc2)ccc1O
Recorded value: inactive
--
Compound: O=C(NCCCN1CCN(CCCNC(=O)c2cc([N+](=O)[O-])ccc2Cl)CC1)c1cc([N+](=O)[O-])ccc1Cl
Recorded value: inactive
--
Compound: NC(=O)c1c(N)sc2c1CCCCC2
Recorded value: inactive
--
Compound: COc1ccc(S(=O)(=O)NCCSc2ccc(Cl)cc2)cc1OC
Recorded value: inactive
--
Compound: CC1Nc2ccccc2C(=O)N1NS(C)(=O)=O (centres undefined)
Recorded value: inactive
--
Compound: Cc1onc(-c2ccccc2Cl)c1C(=O)Nc1nn[nH]n1
Recorded value: inactive
--
Compound: Cc1ccc(CC(=O)OCCNC(=O)c2cccnc2)cc1
Recorded value: inactive
--
Compound: COc1cccc(N2CC(C(=O)Nc3nnc(SCC(=O)c4ccccc4)s3)CC2=O)c1 (centres undefined)
Recorded value: inactive

Reported percent span inhibition ( Fc1ccccc1/C=C1\CCCC2=C1NC(=S)NC2c1ccccc1F (centres undefined) ) = inactive

Reported percent span inhibition ( CC1CC2=C(NC(=S)NC2c2ccccc2F)/C(=C/c2ccccc2F)C1 (centres undefined) ) = inactive

Reported percent span inhibition ( "CCC(=O)OCCNc1cc(Sc2nccn2C)c2nonc2c1[N+](=O)[O-]" ) = inactive

Reported percent span inhibition ( "CCC(/C=C1\Sc2ccc(OC)cc2N1CCO)=C\c1sc2ccc(OC)cc2[n+]1CCO" ) = inactive

* * *

Test system: glutathione S-transferase (GST-GSH binding)
Run description: GST–glutathione interaction disruption – biochemical, multiplex beads, flow cytometry, HPSMTB buffer, profiling panel (AID 1324);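 further: glutathione beads loaded with GST-green fluorescent protein and no fluorescent Bim peptide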
Run parameters: multiplex bead flow cytometry, MCF, concentration not given here
The source made the active and inactive calls. The rule behind the calls is not given here.
Measurement kind: percent span inhibition

Some compounds with known percent span inhibition results, for comparison:
Smiles input: N#CC(C#N)=C1C=CC=CN1/C(=C\c1ccco1)C(=O)c1ccccc1
percent span inhibition: inactive
--
Smiles input: Cc1ccnc(NS(=O)(=O)c2ccc(NC(=O)c3c(-c4ccccc4Cl)noc3C)cc2)n1
percent span inhibition: inactive
--
Smiles input: Cc1ccc(N=Cc2c(O)n(-c3ccc4c(c3)OCO4)c(=O)c3ccccc23)cc1
percent span inhibition: inactive
--
Smiles input: O=C(O)c1ccc(NC2=C/C(=N/S(=O)(=O)c3ccccc3)c3ccccc3C2=O)cc1
percent span inhibition: inactive

Turning to the following compound.
Reported percent span inhibition ( "COc1cc(C2Nc3cccc4cccc(c34)N2)ccc1OC(C)=O" ) = inactive

* * *

Test system: glutathione S-transferase (GST-GSH binding)
Run description: GST–glutathione interaction disruption – biochemical, multiplex beads, flow cytometry, HPSMTB buffer, profiling panel (AID 1324);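 further: glutathione beads loaded with GST-green fluorescent protein and no fluorescent Bim peptide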
Run parameters: multiplex bead flow cytometry, MCF, concentration not given here
Active and inactive are the calls of the source. No rule for the calls is given here.
Measurement kind: percent span inhibition

Compound: CC(C)c1ccc(/C=N/NC(=O)c2ccccc2Cl)cc1
percent span inhibition: inactive
--
Compound: c1ccc(-c2nc(N3CCOCC3)s[n+]2-c2ccccc2)cc1
percent span inhibition: inactive
--
Compound: CC1CC2=C(NC(=S)NC2c2cccc(F)c2)/C(=C/c2cccc(F)c2)C1 (stereo not drawn)
percent span inhibition: inactive
--
Compound: Cc1occc1C(=O)NNC(=S)NCc1ccccc1
percent span inhibition: inactive
--
Compound: O=C(Cc1ccc(-c2ccccc2)cc1)NC1CCCC1
percent span inhibition: inactive
--
Compound: CCn1c(SCC(=O)Nc2ccc(C)cc2)nnc1-c1ccc(O)cc1
percent span inhibition: inactive
--
Compound: Clc1ccc2c(N/N=C/c3ccc(Br)cc3)ccnc2c1
percent span inhibition: inactive
--
Compound: Cc1ccc(-c2cc(C(=O)Nc3ccccc3C)c3ccccc3n2)o1
percent span inhibition: inactive
--
Compound: CCN(CC)c1ccc(NC(=O)c2ccc(=O)[nH]c2)cc1S(=O)(=O)Nc1ccccc1OC
percent span inhibition: inactive
--
Compound: CCC(CC)C(=O)Nc1cccc(SC)c1
percent span inhibition: inactive

Turning to the following compound.
Item: "CNC(=S)N(Cc1cccs1)Cc1cc2ccc(OC)cc2[nH]c1=O" | System: glutathione S-transferase (GST-GSH binding) | percent span inhibition: inactive
